Test: Organ distribution of regorafenib in rats with or without RT
Format: in vivo, Sprague-Dawley rats
Conditions: Sprague-Dawley, rat, spleen, oral, 16 mg/kg, rat, 4 h after oral administration; RT9 Gy × 1 f'x with regorafenib 16 mg/kg × 1 d (concurrent); read-out: Concentration in spleen
reported_property: concentration at 4 h (ng/g)
Use ng/g as the unit, but write only the number.

Query (compound): CNC(=O)c1cc(Oc2ccc(NC(=O)Nc3ccc(Cl)c(C(F)(F)F)c3)c(F)c2)ccn1 ; field requested: concentration at 4 h
140

###

Assay: Organ distribution of regorafenib in rats with or without RT
Format: in vivo, Sprague-Dawley rats
Conditions: male, Sprague-Dawley, rat, heart, po, 16 mg/kg, rat, 4 h after oral administration; 16 mg/kg p.o. × 1 d, no RT; read-out: Concentration in heart
Experimental: According to the formula used to translate doses from animal to human, human equivalent dose (HED, mg/kg) = animal dose (mg/kg) × animal km/human km, we calculated the daily dose of regorafenib for rats to be 16 (mg/kg/day). The rats were randomly divided into ten groups with six rats in each group. […] The organ samples were homogenized in 50% aqueous acetonitrile (sample weight: volume = 1:5) and centrifuged at 13,000× g, for 10 min, at 4 °C. […] Finally, the filtrate (20 μL) was analyzed by HPLC.
reported_property: concentration at 4 h (ng/g)
Use ng/g as the unit, but write only the number.

Query (molecule): CNC(=O)c1cc(Oc2ccc(NC(=O)Nc3ccc(Cl)c(C(F)(F)F)c3)c(F)c2)ccn1 ; field requested: concentration at 4 h
450

###

Assay: Organ distribution of regorafenib in rats with or without RT
Type: in vivo, Sprague-Dawley rats
Settings: Sprague-Dawley, rat, lung, oral, 16 mg/kg, rat, 4 h after oral administration; RT2 Gy × 3 f'x with regorafenib 16 mg/kg × 3 d (concurrent); read-out: Concentration in lung
reported_property: concentration at 4 h (ng/g)
Use ng/g as the unit, but write only the number.

Query (molecule): CNC(=O)c1cc(Oc2ccc(NC(=O)Nc3ccc(Cl)c(C(F)(F)F)c3)c(F)c2)ccn1 ; field requested: concentration at 4 h
210

###

Assay: Pharmacokinetics of regorafenib in plasma of freely moving rats with or without RT (HPLC-UV)
Type: in vivo, Sprague-Dawley rats
Conditions: male, Sprague-Dawley, rat, plasma, po, 16 mg/kg, rat plasma; RT2 Gy × 1 f'x with regorafenib 16 mg/kg p.o. × 1 d (concurrent)
reported_property: Tmax (h)
Use h as the unit, but write only the number.

Query (compound): CNC(=O)c1cc(Oc2ccc(NC(=O)Nc3ccc(Cl)c(C(F)(F)F)c3)c(F)c2)ccn1 ; field requested: Tmax
2.75

###

Assay: Pharmacokinetics of regorafenib in plasma of freely moving rats with or without RT (HPLC-UV)
Assay type: in vivo, Sprague-Dawley rats
Conditions: male, Sprague-Dawley, rat, plasma, po, 16 mg/kg, rat plasma; 16 mg/kg p.o. × 1 d, no RT
reported_property: MRT

Query (molecule): CNC(=O)c1cc(Oc2ccc(NC(=O)Nc3ccc(Cl)c(C(F)(F)F)c3)c(F)c2)ccn1 ; field requested: MRT
24.7 h

###

Test: Organ distribution of regorafenib in rats with or without RT
Type: in vivo, Sprague-Dawley rats
Details: Sprague-Dawley, rat, lung, oral, 16 mg/kg, rat, 4 h after oral administration; RT9 Gy × 1 f'x with regorafenib 16 mg/kg × 1 d (concurrent); read-out: Concentration in lung
Description: According to the formula used to translate doses from animal to human, human equivalent dose (HED, mg/kg) = animal dose (mg/kg) × animal km/human km, we calculated the daily dose of regorafenib for rats to be 16 (mg/kg/day). The rats were randomly divided into ten groups with six rats in each group. […] The organ samples were homogenized in 50% aqueous acetonitrile (sample weight: volume = 1:5) and centrifuged at 13,000× g, for 10 min, at 4 °C. […] Finally, the filtrate (20 μL) was analyzed by HPLC.
reported_property: concentration at 4 h (ng/g)
Use ng/g as the unit, but write only the number.

Query (compound): CNC(=O)c1cc(Oc2ccc(NC(=O)Nc3ccc(Cl)c(C(F)(F)F)c3)c(F)c2)ccn1 ; field requested: concentration at 4 h
170

###

Test: Pharmacokinetics of regorafenib in plasma of freely moving rats with or without RT (HPLC-UV)
Format: in vivo, Sprague-Dawley rats
Details: male, Sprague-Dawley, rat, plasma, po, 16 mg/kg, rat plasma; RT9 Gy × 1 f'x followed by regorafenib 16 mg/kg p.o. × 1 d (sequential); read-out: t½
reported_property: half-life (h)
Use h as the unit, but write only the number.

Query (compound): CNC(=O)c1cc(Oc2ccc(NC(=O)Nc3ccc(Cl)c(C(F)(F)F)c3)c(F)c2)ccn1 ; field requested: half-life
10.1

###

Test: Organ distribution of regorafenib in rats with or without RT
Format: in vivo, Sprague-Dawley rats
Conditions: male, Sprague-Dawley, rat, kidney, po, 16 mg/kg, rat, 4 h after oral administration; 16 mg/kg p.o. × 1 d, no RT; read-out: Concentration in kidneys
reported_property: concentration at 4 h (ng/g)
Use ng/g as the unit, but write only the number.

Query (molecule): CNC(=O)c1cc(Oc2ccc(NC(=O)Nc3ccc(Cl)c(C(F)(F)F)c3)c(F)c2)ccn1 ; field requested: concentration at 4 h
340

###

Test: Pharmacokinetics of regorafenib in plasma of freely moving rats with or without RT (HPLC-UV)
Type: in vivo, Sprague-Dawley rats
Settings: male, Sprague-Dawley, rat, plasma, po, 16 mg/kg, rat plasma; RT2 Gy × 3 f'x with regorafenib 16 mg/kg p.o. × 3 d (concurrent)
reported_property: MRT
Write the numeric value and follow it with the unit.

Query (compound): CNC(=O)c1cc(Oc2ccc(NC(=O)Nc3ccc(Cl)c(C(F)(F)F)c3)c(F)c2)ccn1 ; field requested: MRT
9.73 h

###

Test: Organ distribution of regorafenib in rats with or without RT
Assay type: in vivo, Sprague-Dawley rats
Settings: male, Sprague-Dawley, rat, lung, oral, 16 mg/kg, rat, 4 h after oral administration; RT9 Gy × 1 f'x followed by regorafenib 16 mg/kg × 1 d (sequential); read-out: Concentration in lung
reported_property: concentration at 4 h
Write the numeric value and follow it with the unit.

Query (molecule): CNC(=O)c1cc(Oc2ccc(NC(=O)Nc3ccc(Cl)c(C(F)(F)F)c3)c(F)c2)ccn1 [regorafenib, Regorafenib] ; field requested: concentration at 4 h
1010 ng/g

###

Experiment: Organ distribution of regorafenib in rats with or without RT
Assay type: in vivo, Sprague-Dawley rats
Details: male, Sprague-Dawley, rat, liver, oral, 16 mg/kg, rat, 4 h after oral administration; RT9 Gy × 3 f'x followed by regorafenib 16 mg/kg × 3 d (sequential); read-out: Concentration in liver
Method: According to the formula used to translate doses from animal to human, human equivalent dose (HED, mg/kg) = animal dose (mg/kg) × animal km/human km, we calculated the daily dose of regorafenib for rats to be 16 (mg/kg/day). The rats were randomly divided into ten groups with six rats in each group. […] The organ samples were homogenized in 50% aqueous acetonitrile (sample weight: volume = 1:5) and centrifuged at 13,000× g, for 10 min, at 4 °C. […] Finally, the filtrate (20 μL) was analyzed by HPLC.
reported_property: concentration at 4 h (ng/g)
Use ng/g as the unit, but write only the number.

Query (molecule): CNC(=O)c1cc(Oc2ccc(NC(=O)Nc3ccc(Cl)c(C(F)(F)F)c3)c(F)c2)ccn1 ; field requested: concentration at 4 h
1160

###

Assay: Organ distribution of regorafenib in rats with or without RT
Format: in vivo, Sprague-Dawley rats
Conditions: male, Sprague-Dawley, rat, liver, oral, 16 mg/kg, rat, 4 h after oral administration; RT9 Gy × 1 f'x followed by regorafenib 16 mg/kg × 1 d (sequential); read-out: Concentration in liver
reported_property: concentration at 4 h (ng/g)
Use ng/g as the unit, but write only the number.

Query (molecule): CNC(=O)c1cc(Oc2ccc(NC(=O)Nc3ccc(Cl)c(C(F)(F)F)c3)c(F)c2)ccn1 ; field requested: concentration at 4 h
2390

###

Test: Organ distribution of regorafenib in rats with or without RT
Type: in vivo, Sprague-Dawley rats
Conditions: male, Sprague-Dawley, rat, kidney, oral, 16 mg/kg, rat, 4 h after oral administration; RT2 Gy × 1 f'x with regorafenib 16 mg/kg × 1 d (concurrent); read-out: Concentration in kidneys
reported_property: concentration at 4 h

Query (compound): CNC(=O)c1cc(Oc2ccc(NC(=O)Nc3ccc(Cl)c(C(F)(F)F)c3)c(F)c2)ccn1 [regorafenib, Regorafenib] ; field requested: concentration at 4 h
210 ng/g

###

Assay: Organ distribution of regorafenib in rats with or without RT
Format: in vivo, Sprague-Dawley rats
Conditions: Sprague-Dawley, rat, kidney, oral, 16 mg/kg, rat, 4 h after oral administration; RT9 Gy × 1 f'x with regorafenib 16 mg/kg × 1 d (concurrent); read-out: Concentration in kidneys
reported_property: concentration at 4 h (ng/g)
Use ng/g as the unit, but write only the number.

Query (molecule): CNC(=O)c1cc(Oc2ccc(NC(=O)Nc3ccc(Cl)c(C(F)(F)F)c3)c(F)c2)ccn1 ; field requested: concentration at 4 h
180
